Assay: log P by reversed-phase HPLC analogously to OECD Guideline 117
Type: physicochemical
Conditions: [a] acidic range, pH 2.7, formic acid (or trifluoroacetic acid)/acetonitrile
Items are presented alongside their recorded LogP[a].

Reference set (2 entries):
COMPOUND: Cc1cc(C)c([S+]([O-])CC(F)(F)F)cc1-n1ncc(=O)n(CC(F)(F)F)c1=O (single isomer, unassigned) [compound 47]
VALUE_KIND: LogP[a]
MEASUREMENT: 2.72
//
COMPOUND: Cc1ccc(-n2ccc(=O)[nH]c2=O)cc1SCC(F)(F)F
VALUE_KIND: LogP[a]
MEASUREMENT: 1.99

## Task Give the measured LogP[a] of Cc1cc(F)c(-n2ccc(=O)n(CC(F)(F)F)c2=O)cc1[S+]([O-])CC(F)(F)F (racemic) .
## Result 2.31

## Task Give the measured LogP[a] of "Cc1cc(F)c(-n2ccc(=O)n(CC3CC3)c2=O)cc1SCC(F)(F)F" .
## Result 3.24

## Task Give the measured LogP[a] of C#CCn1c(=O)ccn(-c2cc([S+]([O-])CC(F)(F)F)c(C)cc2F)c1=O (centres unmarked) .
## Result 1.86

## Task Give the measured LogP[a] of "Cc1ccc(-n2ccc(=O)n(CC(F)(F)F)c2=O)cc1SCC(F)(F)F" .
## Result 3.16

## Task Give the measured LogP[a] of "CCn1c(=O)cnn(-c2cc(SCC(F)(F)F)c(C)cc2F)c1=O" .
## Result 3.31

## Task Give the measured LogP[a] of CCCn1c(=O)ccn(-c2cc([S+]([O-])CC(F)(F)F)c(C)cc2F)c1=O (centres unmarked) .
## Result 2.17

## Task Give the measured LogP[a] of "Cc1cc(C)c(-n2ccc(=O)[nH]c2=O)cc1SCC(F)(F)F" .
## Result 2.18

## Task Give the measured LogP[a] of "Cc1ccc(-n2ccc(=O)n(CC3CC3)c2=O)cc1SCC(F)(F)F" .
## Result 3.21

## Task Give the measured LogP[a] of Cc1ccc(-n2ccc(=O)n(CC#N)c2=O)cc1[S+]([O-])CC(F)(F)F (centres unmarked) .
## Result 1.63

## Task Give the measured LogP[a] of "O=c1cnn(-c2cc(SCC(F)(F)F)c(Cl)cc2Cl)c(=O)n1CC(F)(F)F" .
## Result 3.93

## Task Give the measured LogP[a] of Cc1cc(F)c(-n2ncc(=O)n(CC3CC3)c2=O)cc1[S+]([O-])CC(F)(F)F (racemic) .
## Result 2.72

## Task Give the measured LogP[a] of "Cc1cc(F)c(-n2ccc(=O)n(CC#N)c2=O)cc1SCC(F)(F)F" .
## Result 2.62

## Task Give the measured LogP[a] of Cc1cc(F)c(-n2ccc(=O)n(CC(F)F)c2=O)cc1[S+]([O-])CC(F)(F)F (centres unmarked) .
## Result 2.06

## Task Give the measured LogP[a] of "O=c1cnn(-c2cc(SCC(F)(F)F)c(Cl)cc2Cl)c(=O)[nH]1" .
## Result 2.72

## Task Give the measured LogP[a] of Cc1cc(F)c(-n2ncc(=O)n(C(C)C)c2=O)cc1[S+]([O-])CC(F)(F)F (racemic) .
## Result 2.64
